pIC50: −log10 of the molar value.
We begin with pIC50 values for UniProtKB P00533, as collected from the published literature.

INPUT: // returns reported pIC50 for input C=CC(=O)Nc1cc(-c2c(-c3cccc(CN4CCN(C)CC4)c3)[nH]c3nccc(Cl)c23)ccc1C
OUTPUT: ≥ 7.00

INPUT: What measured pIC50 goes with CC#CC(=O)N1C[C@H](n2nc(-c3ccc(Oc4ccc(Cl)cn4)cc3)c(C(N)=O)c2N)CCC12CC2 ?
OUTPUT: < 6.00

INPUT: Quick one: pIC50 of Cc1cc(Nc2ncnc3sc4c(c23)CCN(C(=O)/C=C/CN(C)C)C4)ccc1Oc1ccc2ncnn2c1 ?
OUTPUT: 5.00 to 6.00

INPUT: Please report the recorded pIC50 for C=CC(=O)Nc1ccccc1Nc1nc(Nc2ccc3c(c2)OCCOCCOCCO3)ncc1F .
OUTPUT: < 7.00

INPUT: Which pIC50 value belongs to OCCCCC(O)CNCc1ccc(-c2ccc3ncnc(Nc4ccc(OCc5cccc(F)c5)c(Cl)c4)c3c2)o1 (stereo not shown) ?
OUTPUT: > 5.00

INPUT: Quick one: pIC50 for C[C@@H](Nc1ncnc2[nH]c(-c3ccc(NC(=O)CCCC(=O)NO)cc3)cc12)c1ccccc1 ?
OUTPUT: > 7.00

INPUT: // query pIC50 value for entry CCc1cc(Nc2ncc(Cl)c(Nc3ccc(-c4ccc[nH]c4=O)cc3P(C)(C)=O)n2)c(OC)cc1N1CCC(N2CCN(C)CC2)CC1
OUTPUT: 7.08

###

pIC50: −log10 of the molar value.
# pIC50 against UniProt P00533, merged from multiple literature sources

INPUT: Give UniProt P00533 pIC50 for c1ccc(Cn2ncc3ccc(Nc4ncnc5nc(Nc6ccc(CN7CCOCC7)cc6)sc45)cc32)cc1
OUTPUT: 5.99

INPUT: Query the reported pIC50 for UniProt P00533; item: Cn1ncc2c1OCCN1CC[C@@H](Oc3ccc(C(C)(C)O)cc3/C=C/c3n[nH]c4ccc-2cc34)C1=O
OUTPUT: 6.08

INPUT: Provide value of pIC50 for this record tested with UniProt P00533: Cc1ccnc(NC(=O)c2ccc(-c3nn([C@@H]4CCN(C(=O)/C=C/CN(C)C)C4)c4ncnc(N)c34)cc2)c1
OUTPUT: 5.00 to 6.00

INPUT: Identify the measured pIC50 of Cc1ccc(Oc2ccc(Nc3ncnc4sc5c(c34)CCCN(C(=O)/C=C/CN(C)C)C5)cc2C)cn1 for UniProt P00533.
OUTPUT: < 5.00

INPUT: Give recorded pIC50 with UniProt P00533 for the following compound: CN(C)C/C=C/C(=O)N1CCOc2c1ccc1ncnc(Nc3ccc(Oc4cccc(Cl)c4)cc3)c21
OUTPUT: ≥ 7.30

INPUT: For the record C=CC(=O)Nc1cc(-c2c(-c3cccc(C(=O)N4CCC5(CCNC5=O)CC4)c3)[nH]c3nccc(Cl)c23)ccc1C , what value of pIC50 is listed for UniProt P00533?
OUTPUT: 6.00 to 6.30

INPUT: Request: pIC50, test system UniProt P00533, entry CCc1cc(Nc2ncc(Br)c(Nc3ccc(-c4cnc(C)c(C)n4)cc3P(C)(C)=O)n2)c(OC)cc1N1CCC(N2CCN(C)CC2)CC1
OUTPUT: 7.90

INPUT: Provide value of pIC50 for this record tested with UniProt P00533: O=C(Nc1cc(C(F)(F)F)ccn1)c1ccc(Oc2ccnc3[nH]nc(N[C@@H]4CCN(C(=O)C5CC5)C4)c23)cc1
OUTPUT: < 5.00

INPUT: // fetch UniProt P00533 pIC50 for C[C@@H](Nc1ncnc2[nH]c(-c3ccc(C(=O)NO)cc3)cc12)c1ccc(F)cc1
OUTPUT: > 7.00

INPUT: What is its pIC50 for UniProt P00533? Entry: Cc1ccc(Oc2ccc(Nc3ncnc4sc5c(c34)CCN(C(=O)/C=C/CN3CCC[C@H](n4cccn4)C3)C5)cc2C)cn1
OUTPUT: < 5.00

INPUT: Query pIC50 on UniProt P00533 for COC(=O)c1ccc(S(=O)(=O)Nc2cccc(-c3nc(C(C)C)sc3-c3ccnc(Nc4ccc(N5CCOCC5)nc4)n3)c2)o1
OUTPUT: < 6.00

INPUT: Which measured pIC50 belongs to CN(C)C/C=C/C(=O)N1CCOc2c1ccc1ncnc(Nc3ccc(OCc4ccccn4)c(Cl)c3)c21 , tested on UniProt P00533?
OUTPUT: ≥ 7.30

INPUT: Observed pIC50 on UniProt P00533 for Cc1cnc(NC(=O)c2ccc(Oc3ccnc4[nH]nc(C5CCCN(C(=O)C6CC6)C5)c34)cc2)s1 (stereo not drawn) , please.
OUTPUT: 5.00 to 6.00

INPUT: Lab note: need pIC50 with UniProt P00533 for entry c1ccc(Cc2nc3ccc(Nc4ncnc5nn6ccccc6c45)cc3[nH]2)cc1 , please look it up.
OUTPUT: 5.00 to 6.00

INPUT: # query: pIC50 | item CN(C)C/C=C/C(=O)N1CCOc2c1ccc1ncnc(Nc3ccc(Oc4cccc(F)c4)cc3)c21 | system: UniProt P00533
OUTPUT: ≥ 7.30
